target: PAR4 (Homo sapiens (Human), UniProt Q96RI0); assay: FLIPR assay in PAR4-expressing HEK293 cells (PAR4 antagonist activity, calcium mobilization); assay type: cell-based; conditions: FLIPR assay as described in Example A
Sequence (Q96RI0 18-385): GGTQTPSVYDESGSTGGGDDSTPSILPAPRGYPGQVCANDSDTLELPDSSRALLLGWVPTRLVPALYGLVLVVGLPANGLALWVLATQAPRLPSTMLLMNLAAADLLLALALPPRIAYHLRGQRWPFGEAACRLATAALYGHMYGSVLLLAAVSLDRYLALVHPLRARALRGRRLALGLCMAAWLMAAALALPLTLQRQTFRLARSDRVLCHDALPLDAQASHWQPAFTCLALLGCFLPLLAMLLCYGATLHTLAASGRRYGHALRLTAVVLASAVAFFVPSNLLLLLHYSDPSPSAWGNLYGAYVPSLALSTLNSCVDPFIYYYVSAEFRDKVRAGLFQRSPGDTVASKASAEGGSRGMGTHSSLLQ
Entries whose IC50 is below 400 nM take Fulfilled; entries at or above 400 nM take Not fulfilled.

Q: Here's an entry: CSc1nn2cc(-c3nc4c(OCc5cccc(OCc6ccccc6)c5)cccc4o3)nc2s1 [Example 173] . Is its IC50 below 400 nM?
A: Fulfilled

Q: Also need Cc1ccc2nc(-c3cn4nc(C(C)(F)F)sc4n3)sc2c1 [Example 199] , thanks.
A: Not fulfilled

Q: Also need COc1nn2cc(-c3cc4c(O)cccc4o3)nc2s1 [Example 211] , thanks.
A: Fulfilled

Q: Also need COc1nn2cc(-c3nc4ccccc4s3)nc2s1 [Example 5] , thanks.
A: Fulfilled

Q: Also need CSc1nn2cc(-c3cc4cc(Cl)c(C)cc4o3)nc2s1 [Example 269] , thanks.
A: Fulfilled

---

Biological target: PAR4 (Homo sapiens (Human), UniProt Q96RI0)
Assay: FLIPR assay in PAR4-expressing HEK293 cells (PAR4 antagonist activity, calcium mobilization)
Assay type: cell-based
Conditions: FLIPR assay as described in Example A
Description: The FLIPR assay is an exemplary in vitro assay for measuring the activity of the PAR4 antagonists of the present invention. In this assay, intracellular calcium mobilization is induced in PAR4 expressing cells by a PAR4 agonist and calcium mobilization is monitored. See, e.g., Example A. […]
reported-property: IC50 (nM)
Give the quantity in nM, number only.

Q: Name the reported IC50 value associated with the molecule `COc1cc2oc(-c3cn4nc(Br)sc4n3)cc2cc1Cl`
A: 8.63

Q: Also need `COc1nn2cc(-c3cc4c(F)cc(OCc5cccc(OCc6ccccc6)c5)cc4o3)nc2s1` , thanks.
A: 4.81

Q: Also need `CSc1nn2cc(-c3cc4cccc(Cl)c4o3)nc2s1` , thanks.
A: 144

Q: Also need `COCCOc1cccc2oc(-c3cn4nc(SC)sc4n3)cc12` , thanks.
A: 21.8

Q: Also need `Brc1nn2cc(-c3cc4c(OCc5ccccc5)cc(OCc5ccccc5)cc4o3)nc2s1` , thanks.
A: 604

Q: Also need `COc1nn2cc(-c3nc4c(OC(F)(F)F)cccc4s3)nc2s1` , thanks.
A: 2420

Q: Also need `CSc1nn2cc(-c3nc4ccc(OCc5cccnc5)cc4o3)nc2s1` , thanks.
A: 286

Q: Also need `CSc1nn2cc(-c3nc4c(C)cc(Cl)cc4s3)nc2s1` , thanks.
A: 990

Q: Also need `COc1nn2cc(-c3cc4c(OCc5cccc(OCc6ccccc6)c5)cc(F)cc4o3)nc2s1` , thanks.
A: 1.91

---

molecular target: UniProt:Q96RI0; assay: Gamma thrombin induced platelet aggregation assay in PRP (PRP assay); format: cell-based
Kindly supply the reported pIC50 values for the records listed here.
Scale for pIC50: -log10 of concentration given in mol/L; no unit attached.

Q: Name the reported pIC50 value associated with the molecule COc1cc(OCc2cccc(OCc3cc(OC(C)C)cc(OC(C)C)c3)c2)c2cc(-c3cn4nc(OC)sc4n3)oc2c1 [Example 371]
A: 5.16

Q: Also need COc1cc(OCc2cccc(OCc3ccccc3)c2)c2cc(-c3cn4nc([C@H](C)F)sc4n3)oc2c1 [Example 407] , thanks.
A: 6.33

Q: Also need COc1cc(OCc2cccc(OCc3ccc(C(C)(C)C)cc3)c2)c2cc(-c3cn4nc(OC)sc4n3)oc2c1 [Example 393] , thanks.
A: 5.60

Q: Also need COc1cc(OC)c2c(C)c(-c3cn4nc(OC)sc4n3)oc2c1 [Example 72] , thanks.
A: 5.63

Q: Also need COc1ccc(COc2cccc(COc3cc(OC)cc4oc(-c5cn6nc(OC)sc6n5)cc34)c2)cc1 [Example 392] , thanks.
A: 6.98

Provenance of the data: patent US9862730B2
